Biological target: T1, LILRB4 on human mononuclear leukemia cells THP-1 (human, UniProt Q8NHJ6 22-448)
T1 construct: whole, on cells; The protein is endogenous to the cells; also called LILRB4 positive cells THP-1
Experiment: flow cytometry on THP-1 cells, PE goat anti-human IgG Fc, MFI
reportedProperty: EC50 (read off the curve)

## Task Which measured EC50 (read off the curve) value corresponds to humanized antibody RB4-G1-019 (antibody, human IgG1, kappa, V domains shown) VH: QVQLVQSGAEVKKPGASVKVSCKASGYTFTSYWMHWVRQAPGQGLEWMGEINPSNGRTNYNEKFKSRVTLTVDKSTSTVYMELSSLRSEDTAVYYCARDRYDEGNAMDYWGQGTTVTVSS VL: DIQMTQSPSSLSASVGDRVTITCRASQDITNYLNWYQQKPGKAPKLLIYYTSRLHSGVPSRFSGSGSGTEYTLTISSLQPDDFATYYCQQGDTLPRTFGQGTRLEIKR ?
## Result ~0.03 µg/mL
